test: physchem
applied conditions: n-octanol/aqueous mixture, pH 7.4
parameter: logD
Hey, just send me the number, nothing else.

Asked: Entry CS(=O)(=O)Nc1ccc(C(F)(F)F)cc1 has what logD?
Given back: 1.9

Asked: # query: logD of entry CS(=O)(=O)NC(=O)Nc1ccc(C(F)(F)F)cc1
Given back: -0.3

Asked: Consider the molecule NS(=O)(=O)c1ccc(C(F)(F)F)cc1 and give its measured logD.
Given back: 1.4

Asked: Form field: reported logD of CNS(=O)(=O)c1ccc(C(F)(F)F)cc1
Given back: 2.3

Asked: Quick one: logD for CS(=O)(=O)NC(=O)c1ccc(C(F)(F)F)cc1 ?
Given back: -1
